Study system: T1, recombinant human GREM1 (hGREM1-His; C-terminal 10His tagged, R&D, #5190-GR) (human, UniProt O60565 25-184)
T1 construct: range 25-184; also called recombinant human GREM1 with a C-terminal decahistidine tag
T1 sequence: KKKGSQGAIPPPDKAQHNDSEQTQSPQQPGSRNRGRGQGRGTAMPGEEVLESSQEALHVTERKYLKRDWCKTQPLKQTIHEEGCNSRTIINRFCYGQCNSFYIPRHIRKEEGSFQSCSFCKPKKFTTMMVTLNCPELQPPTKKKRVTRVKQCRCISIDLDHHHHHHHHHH
Test method notes: BLI Octet, mAb captured, 100 nM GREM1 + 5 uM heparin;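 further: octet Red96 biolayer interferometry at 25 °C, antibodies captured on anti-human IgG Fc biosensors, pH 7.4 HEPES buffer with 0.1 mg/mL BSA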
Could you please report measured Binding Signal with 30 sec Association for the items listed next?
// units = nm; emit number, no label

Measured Binding Signal with 30 sec Association of H4H6270P (antibody, human IgG4, V domains shown, H4H prefix = human IgG4 Fc) VH: QVQLVESGGDVVQPGRSLRLSCAASGFTFSSYGMHWVRQAPGKGLEWVAIIWNDGSNKYYTDSVKGRFTISRDNSKNTLYLQMNGLRAEDTAIYYCARDQDQFDYWGQGTLVTVSS VL: EIVMTQSPATLSVSPGERATLSCRASQSISTNLAWYRQKPGQAPRLLIYDASTRATGIPARFSGSGSGTDFTLTISSLQSEDFAVYYCQQYSNWPPYTFGQGTKLEIK : 0.05

Value of Binding Signal with 30 sec Association reported for the binder H4H6248P (antibody, human IgG4, V domains shown, H4H prefix = human IgG4 Fc) VH: QVQLVESGGGVVQPGRSLRLSCAASGFTFSNYGMHWVRQVPGKGLEWVAVIWYDGSNKYYADSVKGRFTISRDNSKNTLYLQMNSVRAEDTAVYYCARDDYGDSPGFDYWGQGTLVTVSS VL: EIVMTQSPATLSVSPGERATLSCRASQSVSSSLAWYQQKPGQAPRLLIYDASTRATGIPARFSGSGSGTEFTLTISGLQSEDFAVYYCQQYNNWPPWTFGQGTKVEIK is 0.04

Short answer for H4H6256P (antibody, human IgG4, V domains shown, H4H prefix = human IgG4 Fc) VH: QVQLVESGGGVVQPGRSLRLSCAASGFTFSAYGMHWVRQGPGKGLEWVAVIWYDGSNKYYADSVKGRFTISRDNSKNTLYLQMNRLRAEDTAVYYCARDDYGDSPGFDHWGQGTLVTVSS VL: EIVMTQSPATLSVSPGERATLSCRASQSVSSELAWYQQKPGQAPRLLLYGASTRATGIPARFSGSGSGTEFTLTISSLQSEDFAVYYCQQYSNWPPWTFGQGTKVEIK : Binding Signal with 30 sec Association was 0.07

Lab note: measured Binding Signal with 30 sec Association of H4H6246P (antibody, human IgG4, V domains shown, H4H prefix = human IgG4 Fc) VH: QVQLVESGGGVVQPGRSLRLSCAASGFTFSSYGMHWVRQAPGKGLEWVAIIWYDGSNRYYADSVKGRFTISRDNSRNTLYLQMNSLRAEDTAVYYCARDEYGDYDYPFDYWGQGTLVTVSS VL: DIQMTQSPSSLSASVGDRVTITCRASQGIRNDLGWFQQKPGKAPKRLIYAASSLQSGVPSRFSGSGSGTEFTLTISSLQPEDFATYYCLQHNTYPPFTFGPGTKVDIK was 0.06

Binding Signal with 30 sec Association recorded for this binder, H4H6252P (antibody, human IgG4, V domains shown, H4H prefix = human IgG4 Fc; also called H4H6252S) VH: QVQLVESGGGVVQPGRSLRLSCAASGFTFSNYGMHWVRQAPGRGLEWVAVIWFDGSNKYYADSVKGRFTISRDNSKNTLYLQMNSLRSEDTAVYYCTRDDYGDYDYPFDYWGQGTLVTVSS VL: DIQMTQSPSSLSASVGDRVTITCRASQGIRNDLGWYQQKPGKAPKRLIYAASSLQSGVPSRFSGSGSGTEFTLTISSLQPEDFATYYCLQYNTYPPFTFGPGTKVDIK , is 0.04

// recorded Binding Signal with 30 sec Association for H4H2780N (antibody, human IgG4, V domains shown, H4H prefix = human IgG4 Fc) VH: EVQLVESGGGLVKPGGSLRLSCAASGFTFSTYSMNWVRQAPGKGLEWVSSISSGSSYIYYTDSVKGRFTISRDNAKNSLYLQMNSLRAEDTAVYYCARFGSYYYFGFDVWGQGTTVTVSS VL: DIQMTQSPSSLSASVGDRVTITCRASQGISNYLAWYQQKPGKVPKLLIFSASTLQSGVPSRFSGSGSGPDFTLTVSSLQPEDVATYYCQKYNSAPFAFGPGTKVDIK : 0.13

Sample H4H2783N2 (antibody, human IgG4, V domains shown, H4H prefix = human IgG4 Fc) VH: EVQLLESGGGLVQPGGSLRLSCAASGFTFSSYVMNWVRQAPGKGLEWVSAISGSGGSTYYADSVKGRSTISRDNSKNTLYLQMNSLRAEDTAIYYCAKGDIAAIVFDAFDIWGQGTVVTVSS VL: DIQMTQSPSSLSASVGDRVTITCQASQDISSALNWYQHKPGKAPKLLIYDASYLETGVPSRFSGSGSGTDFTFTISSLQPEDIATYYCQQYDNLPYTFGQGTKLEIK ; Binding Signal with 30 sec Association observed: 0.01

// recorded Binding Signal with 30 sec Association for H4H2892N (antibody, human IgG4, V domains shown, H4H prefix = human IgG4 Fc) VH: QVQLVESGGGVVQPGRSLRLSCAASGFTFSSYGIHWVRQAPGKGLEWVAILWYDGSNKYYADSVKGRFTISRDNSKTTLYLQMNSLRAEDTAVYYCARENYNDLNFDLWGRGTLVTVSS VL: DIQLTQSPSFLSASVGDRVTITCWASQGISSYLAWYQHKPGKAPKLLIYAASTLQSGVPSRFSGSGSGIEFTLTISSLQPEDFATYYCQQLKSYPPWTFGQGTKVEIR : 0.15

The binder H4H6251P (antibody, human IgG4, V domains shown, H4H prefix = human IgG4 Fc) VH: QVQLVESGGGVVQPGKSLRLSCAASGFTFSRYGMHWVRQAPGKGLEWVAVIWYDGSNKYYADSVKGRFTISRDNSKNTLYLQMNSLRADDTAMYYCARDDYGDSPGFDFWGQGTLVTVSS VL: EIVMTQSPATLSVSPGERATLSCRASQSVSSNLAWYQQKPGQAPRLLIYDASTRATGIPARFSGTGSGTEFTLTISSLQSEDFALYYCQQYDDWPPWTFGQGTKVEIK showed Binding Signal with 30 sec Association equal to 0.03

Sample H4H2889N (antibody, human IgG4, V domains shown, H4H prefix = human IgG4 Fc) VH: QVQLQESGPGLVKPSETLSLTCTVSGGSISNSYWSWIRQPPGKGLEWIGYIYYSGNTNYNPSLKSRVTISVDTSKNQFSLKLSSVTAADTAVYYCARVNDYSNYDSYYYGMDVWGQGTTVTVSS VL: AIQMTQSPSSLSASVGDRVTITCRASQGIRNDLGWYQQKPGKAPKLLIYAASSLQSGVPSRFSGSGSGTDFTLTISSLQPEDFATYYCLQDYNYPPTFGQGTKVDIK ; Binding Signal with 30 sec Association observed: 0.05
